Hi there, I'd appreciate the recorded pKi for every entry that follows.
- Tgt: recombinant PsauGOBP2
- Method Notes: Competitive fluorescence binding assay: displacement of 1-NPN from recombinant PsauGOBP2
- Assay Setup: Ki = [IC50]/(1 + [1-NPN]/K1-NPN); means ± SE, n = 3; read-out: Ki (calculated dissociation constant)
// pKi here means minus log10 of the molar concentration (mol/L)

Kindly state the measured pKi obtained for CCCCCCCCCCCCO with recombinant PsauGOBP2.
4.89

Kindly state the measured pKi obtained for C=CC(=C)CCC=C(C)C with recombinant PsauGOBP2.
5.10

Kindly state the measured pKi obtained for CC(=O)OCCc1ccccc1 [Phenylethyl acetate] with recombinant PsauGOBP2.
5.20

Data credit: paper PMC10450149
